B1: Caulobacter ParB omega fusion; a variant is named by its letters at X, in order, B8GW30 (parent)
chain: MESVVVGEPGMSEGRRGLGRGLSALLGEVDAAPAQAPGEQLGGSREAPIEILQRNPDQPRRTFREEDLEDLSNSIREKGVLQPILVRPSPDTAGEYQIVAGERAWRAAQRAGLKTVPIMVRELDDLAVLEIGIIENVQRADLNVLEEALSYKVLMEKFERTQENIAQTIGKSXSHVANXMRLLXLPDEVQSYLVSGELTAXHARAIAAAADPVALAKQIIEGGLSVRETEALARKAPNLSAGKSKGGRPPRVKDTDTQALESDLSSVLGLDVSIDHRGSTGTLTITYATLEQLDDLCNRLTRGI

- Variants of: B1
- protocol: one-hybrid fitness for binding parS DNA (scaled: cognate 1, non-cognate 0); higher = stronger binding
- experimentalContext: with parS DNA site
In all, about 81,000 sequences were measured (“one-hybrid fitness for binding parS DNA”: median about -0.17, highest 2% from about 0.51 on). What follows is part of a selection rich in the highest values, with near analogues and random picks from the rest.

mutationAnnotation	one-hybrid fitness for binding parS DNA
RLSS	0.991
RTLD	≤ 0.2
NRNN	≤ 0.2
RVFM	0.363
RLRP	≤ 0.2
RTHY	0.544
TQLI	≤ 0.2
NIPL	≤ 0.2
FYHT	≤ 0.2
RTQF	0.213
RIQR	≤ 0.2
WIKS	≤ 0.2
RDMA	≤ 0.2
RIQF	0.272
RLPG	0.755
AERY	≤ 0.2
DRRG	≤ 0.2
RVKP	≤ 0.2
HQHT	≤ 0.2
QMWS	≤ 0.2
RLHS	0.96
RVFY	0.464
RGMA	0.283
QRRC	≤ 0.2
QSME	≤ 0.2
RCFS	1.03
SDVC	≤ 0.2
RVAT	0.916
RLND	≤ 0.2
AIFS	≤ 0.2
PVGS	≤ 0.2
DMPT	≤ 0.2
RRQQ	≤ 0.2
PVHI	≤ 0.2
RLSD	≤ 0.2
RIQG	0.999
YHPR	≤ 0.2
RRQY	0.441
RVKH	≤ 0.2
RIMM	0.377
KYFM	≤ 0.2
RIIC	0.901
RLIK	≤ 0.2
GSGG	≤ 0.2
ELKN	≤ 0.2
YKTN	≤ 0.2
DQKI	≤ 0.2
RTRH	0.4
RSHY	0.491
RTRS	0.83
KYRN	≤ 0.2
RLPH	≤ 0.2
CNSF	≤ 0.2
ALLC	≤ 0.2
RIIF	≤ 0.2
RRQG	0.727
PKTI	≤ 0.2
RHMG	0.932
RVFT	0.917
PLTH	≤ 0.2
CPAW	≤ 0.2
RTQG	1
RFQG	0.965

FYI, the data here is from a collection of fitness landscapes (doi:10.1016/j.celrep.2020.107928).
